# System: EKVX NSCLC
# testSummary: NCI-60 one-dose screen, 48 h (100 = growth as untreated, 0 = no growth, -100 = all killed)
# conditions: 10 µM unless noted
Compounds without any hit were thinned out: in the full panel of roughly 83,000, 20% have a hit.
Param label: returns criterion met when growth < 70%, returns criterion not met otherwise, including exact equality.

| compound | categoryLabel |
| --- | --- |
| COc1cc(CCC[P+](c2ccccc2)(c2ccccc2)c2ccccc2)c(OC)c2c1OCO2 | criterion met |
| NC1=NC(c2cccc(Br)c2)c2sc3ccc(Cl)cc3c2N1 (stereo not given) | criterion not met |
| COc1ccc(CNC(=O)C(=O)[C@H](Cc2ccccc2)NC(=O)c2[nH]c3ccccc3c(=O)c2C)cc1 | criterion not met |

Criterion: growth strictly below 70%. Is it met by C/C(=C(/c1ccccc1)c1ccc(N2C(=O)c3cccc4c(N5CCN(C)CC5)ccc(c34)C2=O)cc1)c1ccccc1 ?
criterion met
